Tested on: T1, GFP-9S library array, motif 4 ND N98I;D124A (synthetic construct, N98I;D124A)
T1 chain: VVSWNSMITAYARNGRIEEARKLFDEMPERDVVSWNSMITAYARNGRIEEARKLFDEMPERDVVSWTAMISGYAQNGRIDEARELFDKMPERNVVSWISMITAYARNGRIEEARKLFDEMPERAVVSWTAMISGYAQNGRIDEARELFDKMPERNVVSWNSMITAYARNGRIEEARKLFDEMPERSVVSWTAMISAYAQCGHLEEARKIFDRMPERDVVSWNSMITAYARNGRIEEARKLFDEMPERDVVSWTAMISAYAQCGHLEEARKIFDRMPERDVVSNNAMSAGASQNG
Assay summary: high-throughput RNA pulldown from lysate on Ni-NTA beads; HRP: 50 mM Tris pH 8, 150 mM NaCl, 1 mM beta-mercaptoethanol, 50 ug/ml BSA, 3 ug/ml yeast RNA, 0.5% heparin; ITC and FP: Tris pH 8, 200 mM KCl, 5% glycerol; MST: 50 mM Tris pH 8, 200 mM NaCl, 1 mM DTT, BSA, heparin, 0.05% Tween 20
Condition: tags: N-terminal His-eGFP; label: 5' IRDye 800CW
Measured Kd accompanies every entry in the list below.
Output spec: scalar in nM, unitless text.

Binder | Uom | Kd
AUUAAACGUGA (ssRNA) [IR-rpoA-A] | nM | 620

q: # query: Kd of entry AUUAUACGUGA (ssRNA) [IR-rpoA-U]
a: 757
